Reference for the values: patent US20240041042A1

Reported Pre-emergence action against VIOTR in % by item:
# System: Viola tricolor (VIOTR)
# ASSAY: Pre-emergence herbicidal action against VIOTR
# Assay type: in vivo
# EXPERIMENTAL_CONTEXT: 320 g/ha, Viola tricolor

{"columns": ["COMPOUND", "UNIT_STRING", "Pre-emergence action against VIOTR in %"],
 "data": [
  ["C[C@@H](Oc1nn(-c2ncccc2F)c(-c2ccc(F)nc2)c1F)C(=O)O", "%", 80],
  ["COC(=O)[C@@H](C)Oc1nn(-c2ncccc2F)c(-c2cncc(F)c2)c1Br", "%", 100],
  ["COC(=O)COc1nn(-c2ncccc2F)c(-c2ccc(F)nc2)c1Br", "%", 100],
  ["CCOC(=O)[C@@H](C)Oc1nn(-c2ncccc2F)c(-c2ccc(F)nc2)c1F", "%", 100],
  ["CCOC(=O)[C@@H](C)Oc1nn(-c2nc(F)ccc2F)c(-c2ccc(F)nc2)c1Br", "%", 100],
  ["CCOC(=O)COc1nn(-c2ncccc2F)c(-c2ccc(F)nc2)c1C(F)(F)F", "%", 100],
  ["O=C(O)COc1nn(-c2ncccc2F)c(-c2ccc(F)nc2)c1C1CC1", "%", 100],
  ["CCOC(=O)COc1nn(-c2nc(F)ccc2F)c(-c2ccc(F)nc2)c1Br", "%", 100],
  ["COC(=O)COc1nn(-c2nc(F)ccc2F)c(-c2ccc(F)nc2)c1Br", "%", 100],
  ["COC(=O)CNC(=O)[C@@H](C)Oc1nn(-c2ccccn2)c(-c2cncc(F)c2)c1Cl", "%", 100],
  ["COC(=O)CCOC(=O)C(C)Oc1nn(-c2ccccn2)c(-c2ccc(F)nc2)c1C(F)(F)F (stereo not shown)", "%", 100],
  ["C[C@@H](Oc1nn(-c2ncccc2F)c(-c2ccc(F)nc2)c1C(F)(F)F)C(=O)O", "%", 100],
  ["CS(=O)(=O)CCOC(=O)COc1nn(-c2ccccn2)c(-c2ccc(F)nc2)c1Br", "%", 90],
  ["COC(=O)[C@H](C)COC(=O)COc1nn(-c2ccccn2)c(-c2cncc(F)c2)c1Br", "%", 100],
  ["COC(=O)[C@@H](C)Oc1nn(-c2nc(F)ccc2F)c(-c2ccc(F)nc2)c1Br", "%", 100],
  ["CCOC(=O)COc1nn(-c2ccc(Br)c(C)n2)c(-c2cncc(F)c2)c1Br", "%", 90]
]}
